PROTOCOL DETAILS: Identification of proteins required for the processing of the EWS-FLI1 nascent transcript;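 further: robust z of luciferase light less the median z of siRNAs with the same seed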
CONDITION CONTEXT: TC32 Ewing sarcoma NR0B1-luc vs CMV-luc (EWS-FLI1 target promoter against control promoter), 48 h; screened at 20 nM (by protocol)
Whole data set: some 59,000 sequences, median the read-out near -0.00055, cut for the lowest 2% near -2. Many of the other results were omitted from the sample, so the lowest values are more common in it than they were.
With a cut-off of -0.3, any seed-corrected z-score strictly below it is called True; any seed-corrected z-score meeting it or above is called False.

- SEQUENCE STRING: "UUCCAUAGUAGUAGGAUCU against TMEM14B"
  CLASS ASSIGNMENT: "False"
- SEQUENCE STRING: "UAUAGAGCUGCCGUCUCCG against ESRP2"
  CLASS ASSIGNMENT: "True"
- SEQUENCE STRING: "UAGACUACCGGCUUCUUGC against CTRC"
  CLASS ASSIGNMENT: "False"
- SEQUENCE STRING: "UGAGAGUUGAGCCUUAUCA against OR8B8"
  CLASS ASSIGNMENT: "True"
- SEQUENCE STRING: "UUCGCAUUUGUAUUCGACC against GNB4"
  CLASS ASSIGNMENT: "False"
- SEQUENCE STRING: "UCUGGUUAUCAGAAAACCC against PCNP"
  CLASS ASSIGNMENT: "False"
- SEQUENCE STRING: "UUCUUUGAUAGACUUCACC against FTMT"
  CLASS ASSIGNMENT: "False"
- SEQUENCE STRING: "UAGUUGCCUAAUUACACUG against MYO3A"
  CLASS ASSIGNMENT: "True"
- SEQUENCE STRING: "AAGCAUAAAAGGUUCCUGU against IRF4"
  CLASS ASSIGNMENT: "False"
- SEQUENCE STRING: "GAUGCUACGAUACCAGCCA against LYPLA2P2"
  CLASS ASSIGNMENT: "False"
- SEQUENCE STRING: "AAAGCCAGGAGUUCCGCUG against GNG8"
  CLASS ASSIGNMENT: "True"
- SEQUENCE STRING: "UUUGUUGUCUGGUUGGAGC against ZDHHC14"
  CLASS ASSIGNMENT: "True"
- SEQUENCE STRING: "UAGCUGUUCCUUGUAGUUG against NABP1"
  CLASS ASSIGNMENT: "False"
- SEQUENCE STRING: "UGUCGGAUGAGGUCAUUGC against TNS4"
  CLASS ASSIGNMENT: "True"
- SEQUENCE STRING: "UUCCUUGUUAGCACAGACC against GSR"
  CLASS ASSIGNMENT: "True"
- SEQUENCE STRING: "UAGCCGACAAAACAACAUC against HEATR1"
  CLASS ASSIGNMENT: "True"
- SEQUENCE STRING: "UUGGAAACUACAGAUGAGA against WDR82"
  CLASS ASSIGNMENT: "True"
- SEQUENCE STRING: "UAAUUGUCAGCUGAUUGUC against CDC6"
  CLASS ASSIGNMENT: "True"
- SEQUENCE STRING: "UAAUGUAACUACUUCCAUC against TM2D1"
  CLASS ASSIGNMENT: "False"
- SEQUENCE STRING: "AAAGUUUUCCCUUAUGAUG against MYADML2"
  CLASS ASSIGNMENT: "False"
- SEQUENCE STRING: "UUUGUGCUUAACUGGCUGG against RPL12"
  CLASS ASSIGNMENT: "True"
- SEQUENCE STRING: "UAUCUUGACCAAAUAAACC against MPC2"
  CLASS ASSIGNMENT: "False"
- SEQUENCE STRING: "UUCACGACGAUGAUUCCCU against DYNLRB1"
  CLASS ASSIGNMENT: "False"
- SEQUENCE STRING: "UUUCAUCUCCAUCCGGUAG against JPH3"
  CLASS ASSIGNMENT: "True"
- SEQUENCE STRING: "UGCAUUCCGGCUGUGAUCG against LINC00152"
  CLASS ASSIGNMENT: "True"
- SEQUENCE STRING: "UGUAGUAUAUGAUCGACCU against LOC728613"
  CLASS ASSIGNMENT: "True"
